- experiment.description: viability loss of HPDE-C7K cells – cell-based, fluorescence, HTS, primary screen (AID 431);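 further: 0% = DMSO solvent wells and 100% = doxorubicin-treated wells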
- stated.conditions: HPDE-C7K KRASV12 cells, Alamar Blue viability, 48 h; at 10 µM
Among all 63,000 compounds or so, about 1,100 (1.7%) were called active.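 How the source made its calls: active means compounds whose percent cytotoxicity in the single-dose primary screen, scaled between solvent and toxic-drug controls, exceeds 50; inactive means the rest.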 The full list was thinned out, with actives kept by preference. Measured potencies and affinities stand elsewhere.
Pick from label 1 (active), label 0 (inactive) when you respond.

Task: Please state the recorded outcome for this compound: O=C(Cn1c(CN2CCCCC2)nc2ccccc2c1=O)NCc1ccco1
Result: label 0

Task: Please state the recorded outcome for this compound: O=C(OC1CCCCC1)c1ccc(NC(=O)c2ccco2)cc1
Result: label 1

Task: Please state the recorded outcome for this compound: CCCCOC(=O)c1ccc(NC(C)=O)cc1
Result: label 0

Task: Please state the recorded outcome for this compound: COc1ccc(CCn2c(N)c(C(=O)NCc3ccco3)c3nc4ccccc4nc32)cc1OC
Result: label 1

Task: Please state the recorded outcome for this compound: O=C(Nc1ccc(OC(=O)c2ccco2)cc1)c1ccco1
Result: label 0

Task: Please state the recorded outcome for this compound: Cc1c(/C(O)=C2/C(=O)C(=O)N(CCN3CCOCC3)C2c2cccnc2)cnn1-c1ccccc1 (stereo unspecified)
Result: label 0
